# System: Pseudomonas aeruginosa
# assay-name: Antimicrobial activity against Pseudomonas aeruginosa isolate PA477 expressing VIM-2 beta-lactamase
# Type: functional
measured-quantity: MIC

Consider the reported MIC for these molecules:
INSERT INTO assay_data (molecule, value_observed) VALUES
  ('CC(C)(O/N=C(\C(=O)N[C@@H]1C(=O)N2C(C(=O)[O-])=C(C[n+]3ccccc3)CS[C@H]12)c1csc(N)n1)C(=O)O [CEFTAZIDIME]', '≥ 64 µg/mL'),
  ('C[C@H]1[C@H](NC(=O)/C(=N\OC(C)(C)C(=O)O)c2csc(N)n2)C(=O)N1S(=O)(=O)O [AZTREONAM]', '16 µg/mL'),
  ('C[C@@H](O)[C@H]1C(=O)N2C(C(=O)O)=C(SCCNC=N)C[C@H]12 [IMIPENEM ANHYDROUS]', '≥ 16 µg/mL'),
  ('CCN1CCN(C(=O)N[C@@H](C(=O)N[C@@H]2C(=O)N3[C@@H]2SC(C)(C)[C@@H]3C(=O)O)c2ccccc2)C(=O)C1=O [PIPERACILLIN]', '≥ 128 µg/mL'),
  ('CO/N=C(\C(=O)N[C@@H]1C(=O)N2C(C(=O)[O-])=C(C[N+]3(C)CCCC3)CS[C@H]12)c1csc(N)n1 [CEFEPIME]', '≥ 64 µg/mL');

Param item = O=C(O)c1cn(C2CC2)c2cc(N3CCNCC3)c(F)cc2c1=O [CIPROFLOXACIN] ; retrieve measured MIC.
≥ 4 µg/mL

State the recorded MIC for this entry: NC[C@H]1O[C@H](O[C@H]2[C@H](O)[C@@H](O[C@H]3O[C@H](CO)[C@@H](O)[C@H](N)[C@H]3O)[C@H](N)C[C@@H]2N)[C@H](N)C[C@@H]1O [TOBRAMYCIN]
≥ 16 µg/mL

Using the record for NCC[C@H](O)C(=O)N[C@@H]1C[C@H](N)[C@@H](O[C@H]2O[C@H](CN)[C@@H](O)[C@H](O)[C@H]2O)[C@H](O)[C@H]1O[C@H]1O[C@H](CO)[C@@H](O)[C@H](N)[C@H]1O [AMIKACIN] , report its MIC.
8 µg/mL

Param item = C[C@@H](O)[C@H]1C(=O)N2C(C(=O)O)=C(S[C@@H]3CN[C@H](C(=O)N(C)C)C3)[C@H](C)[C@H]12 [MEROPENEM] ; retrieve measured MIC.
≥ 16 µg/mL

* * *

# Test system: Pseudomonas aeruginosa
# assay-name: Antimicrobial activity against Pseudomonas aeruginosa isolate PA481 expressing VIM-2 beta-lactamase
# Format: functional
Measured MIC values are reported for all entries that follow.

Examples with their reported MIC follow.
INSERT INTO measurements (compound, study_target, value_observed) VALUES
  ('CO/N=C(\C(=O)N[C@@H]1C(=O)N2C(C(=O)[O-])=C(C[N+]3(C)CCCC3)CS[C@H]12)c1csc(N)n1 [CEFEPIME]', 'Pseudomonas aeruginosa', '≥ 64 µg/mL'),
  ('C[C@@H](O)[C@H]1C(=O)N2C(C(=O)O)=C(SCCNC=N)C[C@H]12 [IMIPENEM ANHYDROUS]', 'Pseudomonas aeruginosa', '≥ 16 µg/mL'),
  ('CCN1CCN(C(=O)N[C@@H](C(=O)N[C@@H]2C(=O)N3[C@@H]2SC(C)(C)[C@@H]3C(=O)O)c2ccccc2)C(=O)C1=O', 'Pseudomonas aeruginosa', '≥ 128 µg/mL');

Which MIC value belongs to NCC[C@H](O)C(=O)N[C@@H]1C[C@H](N)[C@@H](O[C@H]2O[C@H](CN)[C@@H](O)[C@H](O)[C@H]2O)[C@H](O)[C@H]1O[C@H]1O[C@H](CO)[C@@H](O)[C@H](N)[C@H]1O ?
8 µg/mL

Fill in the blank: the reported MIC of NC[C@H]1O[C@H](O[C@H]2[C@H](O)[C@@H](O[C@H]3O[C@H](CO)[C@@H](O)[C@H](N)[C@H]3O)[C@H](N)C[C@@H]2N)[C@H](N)C[C@@H]1O is ____.
≥ 16 µg/mL

Look up MIC for this compound: C[C@@H](O)[C@H]1C(=O)N2C(C(=O)O)=C(S[C@@H]3CN[C@H](C(=O)N(C)C)C3)[C@H](C)[C@H]12
≥ 16 µg/mL

For O=C(O)c1cn(C2CC2)c2cc(N3CCNCC3)c(F)cc2c1=O , what is its reported MIC?
≥ 4 µg/mL

Name the recorded MIC for C[C@H]1[C@H](NC(=O)/C(=N\OC(C)(C)C(=O)O)c2csc(N)n2)C(=O)N1S(=O)(=O)O .
16 µg/mL

Quick one: MIC of CC(C)(O/N=C(\C(=O)N[C@@H]1C(=O)N2C(C(=O)[O-])=C(C[n+]3ccccc3)CS[C@H]12)c1csc(N)n1)C(=O)O ?
≥ 64 µg/mL

* * *

# Tested on: Pseudomonas aeruginosa
# assay-name: Antimicrobial activity against metallo-beta-lactamase-negative Pseudomonas aeruginosa isolate PA483
# Assay type: functional
measured-quantity: MIC (µg/mL)
# value in µg/mL; strip the unit string

Worked set:
INSERT INTO measurements (molecule, value_observed) VALUES
  ('CO/N=C(\C(=O)N[C@@H]1C(=O)N2C(C(=O)[O-])=C(C[N+]3(C)CCCC3)CS[C@H]12)c1csc(N)n1 [CEFEPIME]', 32),
  ('NCC[C@H](O)C(=O)N[C@@H]1C[C@H](N)[C@@H](O[C@H]2O[C@H](CN)[C@@H](O)[C@H](O)[C@H]2O)[C@H](O)[C@H]1O[C@H]1O[C@H](CO)[C@@H](O)[C@H](N)[C@H]1O', 2),
  ('C[C@H]1[C@H](NC(=O)/C(=N\OC(C)(C)C(=O)O)c2csc(N)n2)C(=O)N1S(=O)(=O)O', 64);

Suppose we examine the molecule NC[C@H]1O[C@H](O[C@H]2[C@H](O)[C@@H](O[C@H]3O[C@H](CO)[C@@H](O)[C@H](N)[C@H]3O)[C@H](N)C[C@@H]2N)[C@H](N)C[C@@H]1O ; what MIC value has been reported?
1

* * *

# Tested on: Pseudomonas aeruginosa
# assay-name: Antimicrobial activity against Pseudomonas aeruginosa isolate PA500 expressing VIM-1 beta-lactamase
# Format: functional
Items are presented alongside their recorded MIC.

Lab note: need MIC with Pseudomonas aeruginosa for entry NC[C@H]1O[C@H](O[C@H]2[C@H](O)[C@@H](O[C@H]3O[C@H](CO)[C@@H](O)[C@H](N)[C@H]3O)[C@H](N)C[C@@H]2N)[C@H](N)C[C@@H]1O , please look it up.
8 µg/mL

Missing value: MIC, Pseudomonas aeruginosa, entry CC(C)(O/N=C(\C(=O)N[C@@H]1C(=O)N2C(C(=O)[O-])=C(C[n+]3ccccc3)CS[C@H]12)c1csc(N)n1)C(=O)O . Fill in?
≥ 64 µg/mL

Lab request: please report MIC under test system Pseudomonas aeruginosa for CCN1CCN(C(=O)N[C@@H](C(=O)N[C@@H]2C(=O)N3[C@@H]2SC(C)(C)[C@@H]3C(=O)O)c2ccccc2)C(=O)C1=O
≥ 128 µg/mL

* * *

# Test system: Pseudomonas aeruginosa
# assay-name: Antimicrobial activity against Pseudomonas aeruginosa isolate PA500 expressing VIM-1 beta-lactamase
# Format: functional
measured-quantity: MIC

INSERT INTO results (compound, study_target, measured_quantity, value_observed) VALUES
  ('C[C@@H](O)[C@H]1C(=O)N2C(C(=O)O)=C(SCCNC=N)C[C@H]12 [IMIPENEM ANHYDROUS]', 'Pseudomonas aeruginosa', 'MIC', '≥ 16 µg/mL'),
  ('NCC[C@H](O)C(=O)N[C@@H]1C[C@H](N)[C@@H](O[C@H]2O[C@H](CN)[C@@H](O)[C@H](O)[C@H]2O)[C@H](O)[C@H]1O[C@H]1O[C@H](CO)[C@@H](O)[C@H](N)[C@H]1O', 'Pseudomonas aeruginosa', 'MIC', '≤ 2 µg/mL'),
  ('CO/N=C(\C(=O)N[C@@H]1C(=O)N2C(C(=O)[O-])=C(C[N+]3(C)CCCC3)CS[C@H]12)c1csc(N)n1 [CEFEPIME]', 'Pseudomonas aeruginosa', 'MIC', '≥ 64 µg/mL'),
  ('C[C@@H](O)[C@H]1C(=O)N2C(C(=O)O)=C(S[C@@H]3CN[C@H](C(=O)N(C)C)C3)[C@H](C)[C@H]12', 'Pseudomonas aeruginosa', 'MIC', '≥ 16 µg/mL'),
  ('O=C(O)c1cn(C2CC2)c2cc(N3CCNCC3)c(F)cc2c1=O', 'Pseudomonas aeruginosa', 'MIC', '≥ 4 µg/mL');

Okay, next one:
Recorded MIC for C[C@H]1[C@H](NC(=O)/C(=N\OC(C)(C)C(=O)O)c2csc(N)n2)C(=O)N1S(=O)(=O)O with Pseudomonas aeruginosa, please?
4 µg/mL

* * *

# Tested on: Pseudomonas aeruginosa
# assay-name: Antimicrobial activity against metallo-beta-lactamase-negative Pseudomonas aeruginosa isolate PA459
# Format: functional
Catalogue of MIC values

Some solved entries appear below for comparison.
INSERT INTO measurements (compound, value_observed) VALUES
  ('C[C@@H](O)[C@H]1C(=O)N2C(C(=O)O)=C(SCCNC=N)C[C@H]12 [IMIPENEM ANHYDROUS]', '≥ 16 µg/mL'),
  ('C[C@@H](O)[C@H]1C(=O)N2C(C(=O)O)=C(S[C@@H]3CN[C@H](C(=O)N(C)C)C3)[C@H](C)[C@H]12', '8 µg/mL');

Field: MIC (Pseudomonas aeruginosa). Entry: NCC[C@H](O)C(=O)N[C@@H]1C[C@H](N)[C@@H](O[C@H]2O[C@H](CN)[C@@H](O)[C@H](O)[C@H]2O)[C@H](O)[C@H]1O[C@H]1O[C@H](CO)[C@@H](O)[C@H](N)[C@H]1O
2 µg/mL
